Counter-ions that a name gives are not always drawn.
RESULT_TYPE: melting point

The cases that follow already have their melting point on record.
COc1ccc(N2CC(=O)NS2(=O)=O)c(OC)c1.[K]; > 260 °C
Cc1cc(OCC(=O)NCc2ccccc2)ccc1N1CC(=O)NS1(=O)=O [Example 43]; 70 to 90 °C

For each of the molecules below, note its melting point.
1. O=C1CN(c2ccc(I)cc2)S(=O)(=O)N1 [Example 45]
2. CCn1c(C)nc2cc(CN3CC(=O)NS3(=O)=O)ccc21 (as salt: TFA) [Example 11]
3. Cc1nc2cc(CN3CC(=O)NS3(=O)=O)ccc2n1CCC(C)C [Example 12]
4. O=C1CN(c2ccc(CC3NC(=O)c4ccccc4NC3=O)cc2O)S(=O)(=O)N1 (centres unmarked) [Example 44]
5. CCOC(=O)C(Cc1ccc(CN2CC(=O)NS2(=O)=O)cc1)(NC(C)=O)C(=O)OCC [Example 10-23]
6. O=C1CN(Cc2cccc(I)c2)S(=O)(=O)N1 [Example 4]

Result string:
1: 191 to 193 °C; 2: 255 to 265 °C; 3: 70 to 75 °C; 4: 180 °C; 5: 197 °C; 6: 101 to 103 °C
